B1: CCNC (parent)
chain: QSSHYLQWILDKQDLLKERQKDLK

Variants of: B1
METHOD DESCRIPTION: protein stability index of a GFP-peptide fusion (GPS, HEK-293T) (PSI 1-6); higher = more stable;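 further: lentivirally expressed fusions sorted by FACS into six bins by GFP to DsRed ratio, PSI derived from sequencing read proportions per bin multiplied by bin number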
RECORDED CONDITIONS: c terminus: a fixed tail appended
Below, each entry is listed with its recorded protein stability index.
METRIC NAME: protein stability index

   changes              metric_name  result_number
0     Q13S  protein stability index           2.91
1     Q20K  protein stability index           3.07
2      S2L  protein stability index           1.95
3     E18S  protein stability index           2.54
4     R19L  protein stability index           2.06
5      I9T  protein stability index           3.74
6     K12A  protein stability index           2.73
7     D22Y  protein stability index           2.82
8     E18P  protein stability index           2.56
9      Q1R  protein stability index            3.1
